- Tested on: RPMI-8226 leukemia
- PROTOCOL_SUMMARY: NCI tumour cell line growth inhibition, 48 h

[
  {
    "COMPOUND": "CC[C@@]1(O)C(=O)OCc2c1cc1n(c2=O)Cc2c-1nc1cc(F)c(C)c3c1c2[C@@H](N)CC3",
    "TESTED_ON": "RPMI-8226 leukemia",
    "TGI": "1.58 µM"
  },
  {
    "COMPOUND": "CC(C(=O)n1c2ccccc2c2ccccc21)N(c1ccccc1)c1ccccc1 (stereo unspecified)",
    "TESTED_ON": "RPMI-8226 leukemia",
    "TGI": "36.2 µM"
  },
  {
    "COMPOUND": "Clc1cc(Cl)cc(Nc2ccc3cc(OCCCN4CCOCC4)ccc3n2)c1",
    "TESTED_ON": "RPMI-8226 leukemia",
    "TGI": "7.08 µM"
  },
  {
    "COMPOUND": "O=C(NCc1ccc(S(=O)(=O)c2cc(F)cc(F)c2)cc1)c1ccc2nccn2c1",
    "TESTED_ON": "RPMI-8226 leukemia",
    "TGI": "> 100 µM"
  },
  {
    "COMPOUND": "CCOC(=O)C1(C(=O)OCC)CCCN1C(=O)[C@H](CNC(=O)OC(C)(C)C)NC(=O)OCc1ccccc1",
    "TESTED_ON": "RPMI-8226 leukemia",
    "TGI": "> 100 µM"
  },
  {
    "COMPOUND": "Nc1ccc2nc3n(c2c1)C(=O)c1ccccc1-3",
    "TESTED_ON": "RPMI-8226 leukemia",
    "TGI": "> 100 µM"
  },
  {
    "COMPOUND": "CC1(C)[C@@H](Cn2cnc3c(Cl)nc(N)nc32)CC[C@@]1(C)CO",
    "TESTED_ON": "RPMI-8226 leukemia",
    "TGI": "89.2 µM"
  },
  {
    "COMPOUND": "CCOC(=O)C1CN(C2CC2)CCC1=O (stereo unspecified)",
    "TESTED_ON": "RPMI-8226 leukemia",
    "TGI": "> 100 µM"
  },
  {
    "COMPOUND": "Cc1cccc(C)c1NC(=O)C(=O)CC(=O)c1cccc([N+](=O)[O-])c1",
    "TESTED_ON": "RPMI-8226 leukemia",
    "TGI": "> 100 µM"
  },
  {
    "COMPOUND": "COC(=O)[C@H](Cc1ccccc1)NC(=O)c1ccc(CNC(=O)/C=C/c2cccc(Oc3ccccc3)c2)cc1",
    "TESTED_ON": "RPMI-8226 leukemia",
    "TGI": "> 100 µM"
  },
  {
    "COMPOUND": "COc1cc(CNc2nc3cc(C(F)(F)F)ccc3nc2-c2ccccc2)cc(OC)c1OC",
    "TESTED_ON": "RPMI-8226 leukemia",
    "TGI": "> 100 µM"
  },
  {
    "COMPOUND": "CO/N=C(/C)c1cccc(Nc2cc(-c3ccccc3)nc3ccc(OC)cc23)c1",
    "TESTED_ON": "RPMI-8226 leukemia",
    "TGI": "8.28 µM"
  },
  {
    "COMPOUND": "CC(=O)OC1C2CCC1C1C2C2(Cl)C(Cl)=C(Cl)C1(Cl)C2(Cl)Cl (stereo unspecified)",
    "TESTED_ON": "RPMI-8226 leukemia",
    "TGI": "27.4 µM"
  },
  {
    "COMPOUND": "O=C1CC(Sc2nc3ccc(I)cc3c(=O)n2Cc2ccccc2)C(=O)NN1 (stereo unspecified)",
    "TESTED_ON": "RPMI-8226 leukemia",
    "TGI": "45.5 µM"
  },
  {
    "COMPOUND": "O=c1c2ccccc2nc(-c2ccccc2)n1NC(=S)Nc1ccccc1",
    "TESTED_ON": "RPMI-8226 leukemia",
    "TGI": "> 100 µM"
  },
  {
    "COMPOUND": "Cc1ncc([N+](=O)[O-])n1CCNS(=O)(=O)CCCn1ncnc1[N+](=O)[O-]",
    "TESTED_ON": "RPMI-8226 leukemia",
    "TGI": "> 100 µM"
  },
  {
    "COMPOUND": "O=C1C(=O)N(c2cc(Cl)ccc2Cl)C(=O)C(=O)C1c1nc2ccccc2o1",
    "TESTED_ON": "RPMI-8226 leukemia",
    "TGI": "> 100 µM"
  },
  {
    "COMPOUND": "N#CC(=N)c1ncn(-c2ccccc2N)c1N",
    "TESTED_ON": "RPMI-8226 leukemia",
    "TGI": "> 100 µM"
  },
  {
    "COMPOUND": "N#Cc1c(C#N)c(-c2ccccc2)n(-c2ccccc2)c1N",
    "TESTED_ON": "RPMI-8226 leukemia",
    "TGI": "> 100 µM"
  },
  {
    "COMPOUND": "COC(=O)/C(=C\\c1ccc(N(CCC#N)CCC#N)cc1)NC(=O)c1cc([N+](=O)[O-])ccc1Cl",
    "TESTED_ON": "RPMI-8226 leukemia",
    "TGI": "> 100 µM"
  },
  {
    "COMPOUND": "O=C(O)c1ccc2c(c1)CC1(C2)Cc2cc3c(cc2C1=O)CCC3 (stereo unspecified)",
    "TESTED_ON": "RPMI-8226 leukemia",
    "TGI": "> 100 µM"
  }
]

Sourced from PubChem BioAssay (NCI)
